Tested on: tumor cells
run_description: Inhibition of cell growth in the NCI Developmental Therapeutics Program tumor cell screen
Format: cell-based
condition: mean graph midpoint for all cell lines tested

compound: CCOc1cc2c(cc1O)N(C(C)=O)CCC1C2CCC2(C)C(O)CCC12 (stereo not drawn)
target_entity: tumor cells
measurement_units: µM
Cytotoxicity (MGM μM): 35.5
//
compound: CCOc1cc2c(cc1OC(C)=O)N(C(C)=O)CCC1C2CCC2(C)C(OC(C)=O)CCC12 (stereo not drawn)
target_entity: tumor cells
measurement_units: µM
Cytotoxicity (MGM μM): 38.0
//
compound: CCOc1cc2c(cc1O)NC(=O)CC1C2CCC2(C)C(O)CCC12 (stereo not drawn)
target_entity: tumor cells
measurement_units: µM
Cytotoxicity (MGM μM): 16.2
//
compound: CCOc1cc2c(cc1O)C(=NO)C[C@@H]1[C@@H]2CC[C@]2(C)[C@@H](OC(C)=O)CC[C@@H]12
target_entity: tumor cells
measurement_units: µM
Cytotoxicity (MGM μM): 0.567
//
compound: CCOc1cc2c(cc1O)NCCC1C2CCC2(C)C(O)CCC12 (stereo not drawn)
target_entity: tumor cells
measurement_units: µM
Cytotoxicity (MGM μM): 49.0
//
compound: CCOc1cc2c(cc1O)N(CC)CCC1C2CCC2(C)C(O)CCC12 (stereo not drawn)
target_entity: tumor cells
measurement_units: µM
Cytotoxicity (MGM μM): 50.1

---

Reported melting point is given for each of the following compounds.

compound: CCOc1cc2c(cc1O)CCCC1C2CCC2(C)C(O)CCC12 (stereo not drawn)
melting point: 86 to 88 °C
//
compound: CCOc1cc2c(cc1OC(C)=O)CCCC1C2CCC2(C)C(OC(C)=O)CCC12 (stereo not drawn)
melting point: 98 to 100 °C
//
compound: CCOc1cc2c(cc1O)N(C(C)=O)CCC1C2CCC2(C)C(O)CCC12 (stereo not drawn)
melting point: 189 to 191 °C
//
compound: CCOc1cc2c(cc1O)CC(=O)CC1C2CCC2(C)C(O)CCC12 (stereo not drawn)
melting point: 210 to 212 °C
//
compound: CCOc1cc2c(cc1O)NC(=O)CC1C2CCC2(C)C(O)CCC12 (stereo not drawn)
melting point: 222 to 223 °C
//
compound: CCOc1cc2c(cc1O)C(=NO)C[C@@H]1[C@@H]2CC[C@]2(C)[C@@H](OC(C)=O)CC[C@@H]12
melting point: 226 to 227 °C
